target: KRAS G12V (Homo sapiens, UniProt P01116+P62937, G12V); test: Disruption of BRAF RBD interaction with Ras (FRET / MOA assay, with Cyclophilin A); type: biochemical; conditions: KRAS G12V; read-out: KRAS G12V FRET data IC50
Sequence (P01116 1-169 isoform P01116-2 G12V limits assumed): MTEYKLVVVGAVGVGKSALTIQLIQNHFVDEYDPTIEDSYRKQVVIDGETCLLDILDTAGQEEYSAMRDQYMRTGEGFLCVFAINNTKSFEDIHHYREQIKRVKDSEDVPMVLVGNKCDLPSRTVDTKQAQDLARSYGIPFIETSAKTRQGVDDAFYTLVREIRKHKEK
Sequence (P62937 whole entry): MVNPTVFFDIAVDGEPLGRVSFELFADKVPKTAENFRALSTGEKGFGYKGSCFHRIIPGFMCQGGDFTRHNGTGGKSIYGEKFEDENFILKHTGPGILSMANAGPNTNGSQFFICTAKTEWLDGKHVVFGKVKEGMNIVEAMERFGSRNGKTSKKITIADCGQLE
pIC50: −log10 of the molar value.
VALUE TYPE: pIC50

Record excerpt, results attached:
COMPOUND	pIC50
CCN(CC)C1CN(C(=O)N(C)[C@H](C(=O)N[C@H]2Cc3nc(cs3)-c3ccc4c(c3)c(c(-c3cccnc3[C@H](C)OC)n4CC)CC(C)(C)COC(=O)[C@@H]3CCCN(N3)C2=O)C(C)C)C1 [Example A319]	6.00 to 7.00
CCn1c(-c2cccnc2[C@H](C)OC)c2c3cc(ccc31)-c1csc(n1)C[C@H](NC(=O)[C@H](C(C)C)N(C)C(=O)N1CCCC1)C(=O)N1CCC[C@H](N1)C(=O)OCC(C)(C)C2 (atropisomer, axis not shown) [Example A400]	6.00 to 7.00
CCn1c(-c2cnccc2COC)c2c3cc(ccc31)-c1cc(O)cc(c1)C[C@H](NC(=O)[C@H](C(C)C)N(C)C(=O)C1C[C@@H]1C)C(=O)N1CCC[C@H](N1)C(=O)OCC(C)(C)C2 (some centres unmarked) [Example A19]	6.00 to 7.00
CCn1c(-c2cccnc2[C@H](C)OC)c2c3cc(ccc31)-c1csc(n1)C[C@H](NC(=O)[C@H](C(C)C)N(C)C(=O)[C@@H]1C[C@@H]1C)C(=O)N1CCC[C@H](N1)C(=O)OCC(C)(C)C2 [Example A239]	5.00 to 6.00
CCn1c(-c2cccnc2[C@H](C)OC)c2c3cc(ccc31)-c1csc(n1)C[C@H](NC(=O)[C@H](COC1CN(C(=O)C#CC(C)(C)N(C)C)C1)OC)C(=O)N1CCC[C@H](N1)C(=O)OCC(C)(C)C2 (atropisomer, axis not shown) [Example A705]	5.00 to 6.00
C=CC(=O)N1CC[C@H](C(=O)N(C)[C@H](C(=O)N[C@H]2Cc3cccc(c3)-c3ccc4c(c3)c(c(-c3cc(CN(C)C)cnc3[C@H](C)OC)n4CC)CC(C)(C)COC(=O)[C@@H]3CCCN(N3)C2=O)C(C)C)C1 [Example A523]	< 5.00

What reported pIC50 corresponds to CCn1c(-c2cc(N3CCN(C)CC3)cnc2[C@H](C)OC)c2c3cc(ccc31)-c1csc(n1)C[C@H](NC(=O)[C@H](C(C)C)N(C)C(=O)N(C)C)C(=O)N1CCC[C@H](N1)C(=O)OCC(C)(C)C2 (atropisomer, axis not shown) [Example A277] on KRAS G12V (Homo sapiens, UniProt P01116+P62937, G12V)? 7.00 to 8.00

What reported pIC50 corresponds to CCn1c(-c2cccnc2[C@H](C)OC)c2c3cc(ccc31)-c1cc(O)cc(c1)C[C@H](NC(=O)[C@H](C(C)C)N(C)C(=O)[C@H]1C[C@H]1C)C(=O)N1CCC[C@H](N1)C(=O)OCC(C)(C)C2 [Example A146] on KRAS G12V (Homo sapiens, UniProt P01116+P62937, G12V)? 7.00 to 8.00

What reported pIC50 corresponds to CCn1c(-c2cccnc2[C@H](C)OC)c2c3cc(ccc31)-c1cc(O)cc(c1)C[C@H](NS(=O)(=O)CC1OCCC13CNC3)C(=O)N1CCC[C@H](N1)C(=O)OCC(C)(C)C2 (mixture of isomers) [Example A187] on KRAS G12V (Homo sapiens, UniProt P01116+P62937, G12V)? < 5.00

What reported pIC50 corresponds to CCn1c(-c2cccnc2[C@H](C)OC)c2c3cc(ccc31)-c1csc(n1)C[C@H](NC(=O)[C@H](C(C)C)N(C)C(=O)[C@H]1CCN(C)C1)C(=O)N1CCC[C@H](N1)C(=O)OCC(C)(C)C2 [Example A108] on KRAS G12V (Homo sapiens, UniProt P01116+P62937, G12V)? < 5.00

What reported pIC50 corresponds to CCn1c(-c2cccnc2[C@H](C)OC)c2c3cc(ccc31)-c1cc(O)cc(c1)C[C@H](NC(=O)[C@H](C(C)C)N(C)C(=O)C1CC13CC3)C(=O)N1CCC[C@H](N1)C(=O)OCC(C)(C)C2 (some centres unmarked) [Example A156] on KRAS G12V (Homo sapiens, UniProt P01116+P62937, G12V)? 7.00 to 8.00

What reported pIC50 corresponds to C=CC(=O)N1CCO[C@H]2CCN(C(=O)N(C)[C@H](C(=O)N[C@H]3Cc4nc(cs4)-c4ccc5c(c4)c(c(-c4cccnc4[C@H](C)OC)n5CC)CC(C)(C)COC(=O)C4CCCN(N4)C3=O)C(C)C)C[C@@H]21 (some centres unmarked) [Example A609] on KRAS G12V (Homo sapiens, UniProt P01116+P62937, G12V)? 7.00 to 8.00

What reported pIC50 corresponds to CCn1c(-c2cccnc2[C@H](C)OC)c2c3cc(ccc31)-c1csc(n1)C[C@H](NC(=O)[C@H](C(C)C)N(C)C(=O)N1CCC13CCOCC3)C(=O)N1CCC[C@H](N1)C(=O)OCC(C)(C)C2 (atropisomer, axis not shown) [Example A601] on KRAS G12V (Homo sapiens, UniProt P01116+P62937, G12V)? 6.00 to 7.00
